Molecular target: porcine RNase L (P-RNase L) (Sus scrofa)
Assay: FRET based enzyme assay of RNA substrate cleavage, P-RNase L
Type: biochemical
observable: inhibition of P-RNase L in vitro

O=c1c(O[C@@H]2O[C@H](CO)[C@H](O)[C@H](O)[C@H]2O)c(-c2ccc(O)c(O)c2)oc2cc(O)cc(O)c12 [hyperoside]	inhibited
O=c1c(O)c(-c2cc(O)c(O)c(O)c2)oc2cc(O)cc(O)c12	inhibited

---

Molecular target: human RNase L (H-RNase L) (Homo sapiens)
Sequence (Q05823 whole entry): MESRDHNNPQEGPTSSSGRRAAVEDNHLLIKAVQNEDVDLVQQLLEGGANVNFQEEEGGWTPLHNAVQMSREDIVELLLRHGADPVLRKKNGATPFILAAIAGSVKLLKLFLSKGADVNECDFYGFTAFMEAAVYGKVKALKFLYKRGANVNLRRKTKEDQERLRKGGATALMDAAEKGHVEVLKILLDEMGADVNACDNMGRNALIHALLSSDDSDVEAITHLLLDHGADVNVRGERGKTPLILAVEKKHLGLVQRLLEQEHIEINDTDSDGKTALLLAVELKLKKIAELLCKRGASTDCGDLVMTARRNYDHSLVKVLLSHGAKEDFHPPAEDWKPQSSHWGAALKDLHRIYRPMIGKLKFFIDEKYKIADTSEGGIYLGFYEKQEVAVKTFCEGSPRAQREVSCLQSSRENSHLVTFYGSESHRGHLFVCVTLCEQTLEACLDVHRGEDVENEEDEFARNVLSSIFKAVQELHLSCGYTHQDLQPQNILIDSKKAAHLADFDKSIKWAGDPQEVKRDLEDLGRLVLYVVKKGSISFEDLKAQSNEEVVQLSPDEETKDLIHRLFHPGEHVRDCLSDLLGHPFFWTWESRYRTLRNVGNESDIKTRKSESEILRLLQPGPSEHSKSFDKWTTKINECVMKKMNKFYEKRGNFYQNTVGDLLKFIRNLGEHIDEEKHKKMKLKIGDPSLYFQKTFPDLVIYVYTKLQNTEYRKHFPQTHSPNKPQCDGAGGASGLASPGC
Assay: FRET based enzyme assay of RNA substrate cleavage, H-RNase L
Type: biochemical
observable: inhibition of H-RNase L in vitro

O=c1c(O)c(-c2cc(O)c(O)c(O)c2)oc2cc(O)cc(O)c12 [myricetin]	inhibited
O=C(CCc1ccc(O)cc1)c1c(O)cc(O)cc1O [phloretin]	inhibited
O=c1c(O[C@@H]2O[C@H](CO)[C@H](O)[C@H](O)[C@H]2O)c(-c2ccc(O)c(O)c2)oc2cc(O)cc(O)c12 [hyperoside]	inhibited
CCCCOC(=O)c1ccc(O)cc1 [AC40357]	inhibited
